The values you see were collected from patent US9346797B1.

- EXPERIMENT_SUMMARY: Bioanalysis of brain and plasma samples (exposure, UPLC-MS/MS)
- Type: in vivo
- RUN_CONDITIONS: male, Sprague Dawley, po; brain, rat, 30 mg/kg p.o., 3 hours post dose; read-out: Exp
READOUT: concentration at 3 h (ng/g)

[1] COc1ccc(C(=O)Nc2ccc(F)c([C@@]3(C(F)F)N=C(N)CCC3(F)F)c2)nc1
[2] COc1cnc(C(=O)Nc2ccc(F)c([C@@]3(C(F)F)N=C(N)CCC3(F)F)c2)cn1
Which entry shows the lesser value of concentration at 3 h here, 1 or 2 ? The response must carry the label of the picked entry.
1
(1: 959 ng/g, 2: 2280 ng/g)

---

- Test system: P-gp (MDR1)
- EXPERIMENT_SUMMARY: MDCK-MDR1 assay (permeability/efflux)
- Format: in vitro ADME
- RUN_CONDITIONS: dog, Papp BA/Papp AB, 60-minute incubation, Pgp substrate when ≧2
READOUT: efflux ratio at 60 min, 0.5 μM

NC1=N[C@@](c2cc(NC(=O)c3ccc(Br)cn3)ccc2F)(C(F)F)C(F)(F)CC1 [Compound 12] :: 1.31

[I] Cc1cc(C#N)cnc1C(=O)Nc1ccc(F)c([C@@]2(C(F)F)N=C(N)CCC2(F)F)c1 [Compound 11]
[II] COc1cnc(C(=O)Nc2ccc(F)c([C@@]3(C(F)F)N=C(N)CCC3(F)F)c2)nc1 [Compound 9]
[III] Cc1nc(C(=O)Nc2ccc(F)c([C@@]3(C(F)F)N=C(N)CCC3(F)F)c2)co1 [Compound 4]
Highest efflux ratio at 60 min, 0.5 μM first, then in falling order down to the smallest. // list labels; follow requested order
II, III, I
(II: 11, III: 4.01, I: 2.68)

---

- System: P-gp (MDR1)
- EXPERIMENT_SUMMARY: MDCK-MDR1 assay (permeability/efflux)
- Type: in vitro ADME
- RUN_CONDITIONS: dog, Papp BA/Papp AB, 60-minute incubation, Pgp substrate when ≧2
READOUT: efflux ratio at 60 min, 0.5 μM

Cc1csc(C(=O)Nc2ccc(F)c([C@@]3(C(F)F)N=C(N)CCC3(F)F)c2)n1 :: 0.92
COc1cnc(C(=O)Nc2ccc(F)c([C@@]3(C(F)F)N=C(N)CCC3(F)F)c2)cn1 :: 1.22
COc1cnc(C(=O)Nc2ccc(F)c([C@@]3(C(F)F)N=C(N)CCC3(F)F)c2)c(C)n1 :: 0.98
